Below: a set of entries, each annotated with reported DC50.
molecular target: BRAF D594G (Homo sapiens, UniProt P15056, D594G); construct: Horizon Discovery (HCT-116 BRAF−/− cells); host or cells: HCT-116 BRAF−/− cells, clone 63, lentiviral transduction; experiment: BRAF HiBiT degradation assay, C-terminal HiBiT-tagged BRAF D594G overexpressed in HCT-116 BRAF−/− cells (clone 63), Nano-Glo HiBiT Lytic assay; type: cell-based; conditions: BRAF D594G; DC50 at 50%: fitted conc. at Y=50
Sequence (P15056 whole entry D594G): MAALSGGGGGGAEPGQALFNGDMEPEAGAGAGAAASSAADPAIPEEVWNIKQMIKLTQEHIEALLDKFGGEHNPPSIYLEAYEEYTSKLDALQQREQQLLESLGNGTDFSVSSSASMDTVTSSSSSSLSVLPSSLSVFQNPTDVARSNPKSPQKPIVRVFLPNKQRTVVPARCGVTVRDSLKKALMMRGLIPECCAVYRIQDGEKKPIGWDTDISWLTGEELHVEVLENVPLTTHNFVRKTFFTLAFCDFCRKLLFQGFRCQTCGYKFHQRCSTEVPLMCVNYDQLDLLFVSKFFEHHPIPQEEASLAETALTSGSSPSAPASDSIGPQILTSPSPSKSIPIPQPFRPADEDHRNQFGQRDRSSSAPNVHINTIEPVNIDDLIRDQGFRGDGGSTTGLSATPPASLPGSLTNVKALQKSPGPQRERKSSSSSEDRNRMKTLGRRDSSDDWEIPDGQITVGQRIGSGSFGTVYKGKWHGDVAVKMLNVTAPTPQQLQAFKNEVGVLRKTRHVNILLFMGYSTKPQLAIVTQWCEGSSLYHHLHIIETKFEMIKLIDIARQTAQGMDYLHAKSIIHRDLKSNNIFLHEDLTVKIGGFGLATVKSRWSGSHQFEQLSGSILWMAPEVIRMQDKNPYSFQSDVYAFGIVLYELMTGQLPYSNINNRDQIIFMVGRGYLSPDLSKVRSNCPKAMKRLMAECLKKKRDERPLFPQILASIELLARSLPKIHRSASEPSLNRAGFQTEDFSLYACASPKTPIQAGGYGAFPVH

Recorded DC50, per entry:
compound: CCN(C)S(=O)(=O)Nc1cccc(-c2nc(C(C)(C)C)sc2-c2ccnc(Nc3ccc(N4CCN(C(=O)C5CCN(c6ccc(C7CCC(=O)NC7=O)cc6)CC5)CC4)cn3)n2)c1F (racemic)
system.under.test: BRAF D594G (Homo sapiens, UniProt P15056, D594G)
DC50: > 500 nM
--
compound: CCCS(=O)(=O)Nc1cccc(-c2nc(C(C)(C)C3CCN(C(=O)C4CN(C5CCN(c6ccc7c(c6)C(=O)N(C6CCC(=O)NC6=O)C7=O)CC5)C4)CC3)sc2-c2ccnc(N)n2)c1F (racemic)
system.under.test: BRAF D594G (Homo sapiens, UniProt P15056, D594G)
DC50: > 500 nM
--
compound: CCN(C)S(=O)(=O)Nc1cccc(-c2nc(C)sc2-c2ccnc(Nc3ccc(N4CCN(CC5CCN(c6ccc([C@H]7CCC(=O)NC7=O)cn6)CC5)CC4)cn3)n2)c1F
system.under.test: BRAF D594G (Homo sapiens, UniProt P15056, D594G)
DC50: 10 to 50 nM
--
compound: CCCS(=O)(=O)Nc1cccc(-c2nc(C(C)(C)C)sc2-c2ccnc(Nc3ccc(N4CCN(C(=O)C5CCN(c6ccc(C7CCC(=O)NC7=O)cn6)CC5)CC4)c(F)c3)n2)c1F (racemic)
system.under.test: BRAF D594G (Homo sapiens, UniProt P15056, D594G)
DC50: > 500 nM

Prompt line: What value of DC50 has been reported for the following compound? CCCS(=O)(=O)Nc1cccc(-c2cn(C3CCN(C(=O)C4CCN(C(=O)C5CCN(c6ccc(C7CCC(=O)NC7=O)cn6)CC5)CC4)CC3)nc2-c2ccncc2)c1F (racemic)
Response line: > 500 nM
